- target-or-system: IgG
- assay-explanation: microcalorimetry and surface plasmon resonance
attribute-measured: Kd
Just so you know, I need the unit written after the number.

I'd like to know its Kd. The substance in question is locked helix peptide FNM(5)QQRRFY(6)ALH, cyclized (Fig. 11)
100 µM
